species on record: Rattus norvegicus; assay: Open TG-GATES - Regimen: Single; format: toxicity, organism-based, Sprague-Dawley; set-up: regimen Single, gender Male, age 6 weeks; conditions: in vivo, po, 100 mg/kg, 9 h, tissue Plasma, route gavage, dose level Low
observable: TBIL (mg/dL)
Reply numerically in mg/dL, unit not repeated.

molecule: COC1=CC(=O)C[C@@H](C)[C@]12Oc1c(Cl)c(OC)cc(OC)c1C2=O
unit.info: mg/dL
TBIL: 0.1
//
molecule: CCOC(=O)CCC(=O)O[C@H]1[C@H](O[C@@H]2[C@@H](C)[C@H](O[C@H]3C[C@@](C)(OC)[C@@H](O)[C@H](C)O3)[C@@H](C)C(=O)O[C@H](CC)[C@@](C)(O)[C@H](O)[C@@H](C)C(=O)[C@H](C)C[C@@]2(C)O)O[C@H](C)C[C@@H]1N(C)C [ERYTHROMYCIN ETHYLSUCCINATE]
unit.info: mg/dL
TBIL: 0.012
//
molecule: NC(N)=Nc1nc(CSCCC(N)=NS(N)(=O)=O)cs1
unit.info: mg/dL
TBIL: 0.1

Supply TBIL value. Item: COc1ccc2[nH]c([S+]([O-])Cc3ncc(C)c(OC)c3C)nc2c1 (centres undefined)
0.1

---

Each record here notes measured Ret.
species: Rattus norvegicus; assay: Open TG-GATES - Regimen: Single; assay type: toxicity, organism-based, Sprague-Dawley; design: regimen Single, gender Male, age 6 weeks; conditions: in vivo, po, 100 mg/kg, 3 h, tissue Blood, route gavage, dose level Low
Reply with the number and its unit after it.

compound: CCOC(=O)CCC(=O)O[C@H]1[C@H](O[C@@H]2[C@@H](C)[C@H](O[C@H]3C[C@@](C)(OC)[C@@H](O)[C@H](C)O3)[C@@H](C)C(=O)O[C@H](CC)[C@@](C)(O)[C@H](O)[C@@H](C)C(=O)[C@H](C)C[C@@]2(C)O)O[C@H](C)C[C@@H]1N(C)C [ERYTHROMYCIN ETHYLSUCCINATE]
observable: Ret
readout.value: 8.2%
--
compound: COC1=CC(=O)C[C@@H](C)[C@]12Oc1c(Cl)c(OC)cc(OC)c1C2=O [GRISEOFULVIN]
observable: Ret
readout.value: 8%
--
compound: NC(N)=Nc1nc(CSCCC(N)=NS(N)(=O)=O)cs1 [FAMOTIDINE]
observable: Ret
readout.value: 7.2%

Let us examine a further case.
Specify reported Ret for the compound shown: COc1ccc2[nH]c([S+]([O-])Cc3ncc(C)c(OC)c3C)nc2c1 (centres undefined) [OMEPRAZOLE]
6.9%

---

species: Rattus norvegicus; assay: Open TG-GATES - Regimen: Daily Repeat; assay type: toxicity, organism-based, Sprague-Dawley; set-up: regimen Daily Repeat, gender Male, age 6 weeks; settings: in vivo, po, 100 mg/kg, […], tissue Blood, route gavage, dose level Low, time 7 day
# MCV listing for each entry below
Expressed in fL, but write only the number.

Answered cases to consult:
molecule: CCOc1ccc(NC(=O)CC(C)O)cc1 (stereo not given) [BUCETIN]
observable: MCV
unit.info: fL
readout.value: 61.2
--
molecule: CCOC(=O)CCC(=O)O[C@H]1[C@H](O[C@@H]2[C@@H](C)[C@H](O[C@H]3C[C@@](C)(OC)[C@@H](O)[C@H](C)O3)[C@@H](C)C(=O)O[C@H](CC)[C@@](C)(O)[C@H](O)[C@@H](C)C(=O)[C@H](C)C[C@@]2(C)O)O[C@H](C)C[C@@H]1N(C)C [ERYTHROMYCIN ETHYLSUCCINATE]
observable: MCV
unit.info: fL
readout.value: 60.1
--
molecule: COC1=CC(=O)C[C@@H](C)[C@]12Oc1c(Cl)c(OC)cc(OC)c1C2=O [GRISEOFULVIN]
observable: MCV
unit.info: fL
readout.value: 63
--
molecule: COc1ccc2[nH]c([S+]([O-])Cc3ncc(C)c(OC)c3C)nc2c1 (stereo not given) [OMEPRAZOLE]
observable: MCV
unit.info: fL
readout.value: 60.6

Given NC(N)=Nc1nc(CSCCC(N)=NS(N)(=O)=O)cs1 [FAMOTIDINE] , respond with its MCV.
61.5

---

organism: Rattus norvegicus; experiment: Open TG-GATES - Regimen: Single; type: toxicity, organism-based, Sprague-Dawley; set-up: regimen Single, gender Male, age 6 weeks; conditions: in vivo, po, 300 mg/kg, 9 h, tissue Plasma, route gavage, dose level Middle
# CRE per entry
Please give a number only; it is taken to be in mg/dL.

Examples from the recorded data:
compound: COC1=CC(=O)C[C@@H](C)[C@]12Oc1c(Cl)c(OC)cc(OC)c1C2=O [GRISEOFULVIN]
unit.info: mg/dL
readout.value: 0.3
//
compound: NC(N)=Nc1nc(CSCCC(N)=NS(N)(=O)=O)cs1 [FAMOTIDINE]
unit.info: mg/dL
readout.value: 0.4
//
compound: COc1ccc2[nH]c([S+]([O-])Cc3ncc(C)c(OC)c3C)nc2c1 (centres undefined) [OMEPRAZOLE]
unit.info: mg/dL
readout.value: 0.3

Indicate its recorded CRE; the compound in question is CCOC(=O)CCC(=O)O[C@H]1[C@H](O[C@@H]2[C@@H](C)[C@H](O[C@H]3C[C@@](C)(OC)[C@@H](O)[C@H](C)O3)[C@@H](C)C(=O)O[C@H](CC)[C@@](C)(O)[C@H](O)[C@@H](C)C(=O)[C@H](C)C[C@@]2(C)O)O[C@H](C)C[C@@H]1N(C)C [ERYTHROMYCIN ETHYLSUCCINATE]
0.2

---

species on record: Rattus norvegicus; experiment: Open TG-GATES - Regimen: Daily Repeat; format: toxicity, organism-based, Sprague-Dawley; parameters: regimen Daily Repeat, gender Male, age 6 weeks; conditions: in vivo, po, 300 mg/kg, […], tissue Liver, route gavage, dose level Middle, time 14 day
Recorded LIVER by entry
Number only, in g; omit the unit.

Could you please provide reported LIVER for COc1ccc2[nH]c([S+]([O-])Cc3ncc(C)c(OC)c3C)nc2c1 (stereo not given) ? Thanks!
15.7

Entry CCOc1ccc(NC(=O)CC(C)O)cc1 (stereo not given) needs its LIVER filled in; supply it.
17.2

Return the recorded LIVER value; entry: NC(N)=Nc1nc(CSCCC(N)=NS(N)(=O)=O)cs1
13.4

Specify measured LIVER for COC1=CC(=O)C[C@@H](C)[C@]12Oc1c(Cl)c(OC)cc(OC)c1C2=O .
14.8

Please report LIVER for the following compound: CCOC(=O)CCC(=O)O[C@H]1[C@H](O[C@@H]2[C@@H](C)[C@H](O[C@H]3C[C@@](C)(OC)[C@@H](O)[C@H](C)O3)[C@@H](C)C(=O)O[C@H](CC)[C@@](C)(O)[C@H](O)[C@@H](C)C(=O)[C@H](C)C[C@@]2(C)O)O[C@H](C)C[C@@H]1N(C)C [ERYTHROMYCIN ETHYLSUCCINATE]
13.9

---

species: Rattus norvegicus; test: Open TG-GATES - Regimen: Daily Repeat; assay type: toxicity, organism-based, Sprague-Dawley; design: regimen Daily Repeat, gender Male, age 6 weeks; details: in vivo, po, 1000 mg/kg, […], tissue Plasma, route gavage, dose level High, time 7 day
observable: CRE
Answer format: number, then unit.

compound: COc1ccc2[nH]c([S+]([O-])Cc3ncc(C)c(OC)c3C)nc2c1 (stereo not drawn) [OMEPRAZOLE]
CRE: 0.4 mg/dL
//
compound: NC(N)=Nc1nc(CSCCC(N)=NS(N)(=O)=O)cs1 [FAMOTIDINE]
CRE: 0.4 mg/dL

Entry CC(C)OC(=O)C(C)(C)Oc1ccc(C(=O)c2ccc(Cl)cc2)cc1 [FENOFIBRATE] needs its CRE filled in; supply it.
0.2 mg/dL

---

Listing of entries alongside the reported CRE.
species on record: Rattus norvegicus; assay: Open TG-GATES - Regimen: Single; format: toxicity, organism-based, Sprague-Dawley; design: regimen Single, gender Male, age 6 weeks; settings: in vivo, po, 1000 mg/kg, 24 h, tissue Plasma, route gavage, dose level High
Report the value in mg/dL with no unit label.

compound: CC(C)OC(=O)C(C)(C)Oc1ccc(C(=O)c2ccc(Cl)cc2)cc1 [FENOFIBRATE]
observable: CRE
readout.value: 0.2

State its CRE: COc1ccc2[nH]c([S+]([O-])Cc3ncc(C)c(OC)c3C)nc2c1 (stereo not given)
0.4

Note CRE for the compound shown: NC(N)=Nc1nc(CSCCC(N)=NS(N)(=O)=O)cs1
0.4

Respond only with CRE recorded for COC1=CC(=O)C[C@@H](C)[C@]12Oc1c(Cl)c(OC)cc(OC)c1C2=O
0.4

Output CRE of CCOC(=O)CCC(=O)O[C@H]1[C@H](O[C@@H]2[C@@H](C)[C@H](O[C@H]3C[C@@](C)(OC)[C@@H](O)[C@H](C)O3)[C@@H](C)C(=O)O[C@H](CC)[C@@](C)(O)[C@H](O)[C@@H](C)C(=O)[C@H](C)C[C@@]2(C)O)O[C@H](C)C[C@@H]1N(C)C [ERYTHROMYCIN ETHYLSUCCINATE]
0.1
